Cited source for all entries: paper PMC10786891

Hi there, I'd appreciate the recorded log10(Kd) for every entry that follows.
- TESTED_ON: T1, EsCas13d, nuclease-dead (Eubacterium siraeum, UniProt B0MS50, R295A;H300A;R849A;H854A)
- T1 sequence: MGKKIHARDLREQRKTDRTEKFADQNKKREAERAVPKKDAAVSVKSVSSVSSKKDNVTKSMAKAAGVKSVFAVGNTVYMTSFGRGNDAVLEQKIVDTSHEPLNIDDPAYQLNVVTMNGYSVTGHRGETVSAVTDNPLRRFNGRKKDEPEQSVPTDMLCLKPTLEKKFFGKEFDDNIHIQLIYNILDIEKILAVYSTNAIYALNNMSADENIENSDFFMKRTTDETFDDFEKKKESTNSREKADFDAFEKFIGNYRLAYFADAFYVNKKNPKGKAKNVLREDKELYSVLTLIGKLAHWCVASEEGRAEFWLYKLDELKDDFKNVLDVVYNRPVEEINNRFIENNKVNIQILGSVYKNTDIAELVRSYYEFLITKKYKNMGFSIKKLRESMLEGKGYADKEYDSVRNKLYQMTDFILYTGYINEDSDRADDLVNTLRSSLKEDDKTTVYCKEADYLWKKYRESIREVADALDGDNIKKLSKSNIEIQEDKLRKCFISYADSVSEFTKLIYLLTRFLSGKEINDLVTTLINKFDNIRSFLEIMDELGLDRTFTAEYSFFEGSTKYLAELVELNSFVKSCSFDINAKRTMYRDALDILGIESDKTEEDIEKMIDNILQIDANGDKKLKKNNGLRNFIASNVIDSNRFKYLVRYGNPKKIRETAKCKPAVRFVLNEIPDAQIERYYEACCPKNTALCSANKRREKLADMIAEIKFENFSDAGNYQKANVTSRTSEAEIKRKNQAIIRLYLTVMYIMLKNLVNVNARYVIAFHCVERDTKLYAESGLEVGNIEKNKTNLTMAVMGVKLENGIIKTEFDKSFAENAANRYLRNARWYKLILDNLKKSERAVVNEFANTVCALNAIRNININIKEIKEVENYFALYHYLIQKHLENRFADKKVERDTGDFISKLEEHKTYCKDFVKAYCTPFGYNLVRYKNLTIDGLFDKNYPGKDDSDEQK
- PROTOCOL: crRNA (strand 1, pre-loaded); Mg2+; 40 mM Tris-HCl pH 7.5, 150 mM NaCl, 6 mM MgCl2, 1 mM DTT, 0.1% Tween-20, 0.2 mg/ml BSA; 25 C; 10 min per concentration, then washed
- TEST_CONDITIONS: tags: His6-TwinStrep-SUMO cleaved; N-terminal SNAP kept (SNAP-Surface 488); label: 3' end held by stalled T7 RNA polymerase
Kindly note that the scale is log10 and the underlying Kd is in nM.

Some solved entries appear below for comparison.
target 2 MT 5'PFS AAG 3'PFS UAU (mixed) RNA 1: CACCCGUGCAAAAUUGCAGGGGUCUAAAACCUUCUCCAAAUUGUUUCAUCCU RNA 2: GGGAAUGGAUCCACAUCUACGAAUUCAAGAGGAUGAAACAAUUUGGAGAAGUAUAGAUCGGAAGAGCACACGU    0.56
target 1 insU 3' of 18,insA 3' of 4 (mixed) RNA 1: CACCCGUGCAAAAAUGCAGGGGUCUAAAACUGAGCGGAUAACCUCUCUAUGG RNA 2: GGGAAUGGAUCCACAUCUACGAAUUCGUACCAUAUGAGAGGUUAUCCGCAUCACCGAGAUCGGAAGAGCACACGU    1.32
target 2 MT 5'PFS UAG 3'PFS CGG (mixed) RNA 1: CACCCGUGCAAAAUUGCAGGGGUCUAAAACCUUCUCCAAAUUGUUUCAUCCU RNA 2: GGGAAUGGAUCCACAUCUACGAAUUCUAGAGGAUGAAACAAUUUGGAGAAGCGGAGAUCGGAAGAGCACACGU    0.46
target 2 MT 5'PFS GCC 3'PFS UGA (mixed) RNA 1: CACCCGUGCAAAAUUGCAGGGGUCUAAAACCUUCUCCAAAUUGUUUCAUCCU RNA 2: GGGAAUGGAUCCACAUCUACGAAUUCGCCAGGAUGAAACAAUUUGGAGAAGUGAAGAUCGGAAGAGCACACGU    1.23
target 3 C6A,U22A (mixed) RNA 1: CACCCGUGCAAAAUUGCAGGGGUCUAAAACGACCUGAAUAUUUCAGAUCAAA RNA 2: GGGAAUGGAUCCACAUCUACGAAUUCGUUAUUGAUCUGAAAUAUUAAGGUCUGCAGAUCGGAAGAGCACACGU    1.77
target 1 insU 3' of 20,insU 3' of 9 (mixed) RNA 1: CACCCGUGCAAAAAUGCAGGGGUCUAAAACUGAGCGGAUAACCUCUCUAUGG RNA 2: GGGAAUGGAUCCACAUCUACGAAUUCGUACCAUUAGAGAGGUUAUUCCGCUCACCGAGAUCGGAAGAGCACACGU    1.31
target 1 C7A,A14G (mixed) RNA 1: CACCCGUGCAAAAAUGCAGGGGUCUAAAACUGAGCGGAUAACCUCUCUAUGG RNA 2: GGGAAUGGAUCCACAUCUACGAAUUCGUACCAUAGAGGGGUUAUACGCUCACCGAGAUCGGAAGAGCACACGU    1.19
target 1 MT 5'PFS GUA 3'PFS GCG (mixed) RNA 1: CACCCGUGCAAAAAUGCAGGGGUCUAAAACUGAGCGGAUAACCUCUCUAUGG RNA 2: GGGAAUGGAUCCACAUCUACGAAUUCGUACCAUAGAGAGGUUAUCCGCUCAGCGAGAUCGGAAGAGCACACGU    0.86
target 1 insC 3' of 9,insC 3' of 5 (mixed) RNA 1: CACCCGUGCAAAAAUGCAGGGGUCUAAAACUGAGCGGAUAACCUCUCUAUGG RNA 2: GGGAAUGGAUCCACAUCUACGAAUUCGUACCAUAGAGAGGUUACUCCGCCUCACCGAGAUCGGAAGAGCACACGU    1.04
target 1 MT 5'PFS GUA 3'PFS GCC (mixed) RNA 1: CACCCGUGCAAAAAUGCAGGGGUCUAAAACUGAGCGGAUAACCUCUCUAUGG RNA 2: GGGAAUGGAUCCACAUCUACGAAUUCGUACCAUAGAGAGGUUAUCCGCUCAGCCAGAUCGGAAGAGCACACGU    0.93

Count: 5. Required value per item: log10(Kd).
1. target 1 MT 5'PFS AGU 3'PFS ACA (mixed) RNA 1: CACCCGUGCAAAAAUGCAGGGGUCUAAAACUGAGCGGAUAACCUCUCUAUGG RNA 2: GGGAAUGGAUCCACAUCUACGAAUUCAGUCCAUAGAGAGGUUAUCCGCUCAACAAGAUCGGAAGAGCACACGU
2. target 1 MT 5'PFS GGG 3'PFS CUG (mixed) RNA 1: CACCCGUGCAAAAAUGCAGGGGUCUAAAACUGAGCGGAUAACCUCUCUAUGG RNA 2: GGGAAUGGAUCCACAUCUACGAAUUCGGGCCAUAGAGAGGUUAUCCGCUCACUGAGAUCGGAAGAGCACACGU
3. target 2 MT 5'PFS UAG 3'PFS ACA (mixed) RNA 1: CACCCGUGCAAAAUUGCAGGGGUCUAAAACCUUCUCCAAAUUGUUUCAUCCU RNA 2: GGGAAUGGAUCCACAUCUACGAAUUCUAGAGGAUGAAACAAUUUGGAGAAGACAAGAUCGGAAGAGCACACGU
4. target 1 C2G,U10G (mixed) RNA 1: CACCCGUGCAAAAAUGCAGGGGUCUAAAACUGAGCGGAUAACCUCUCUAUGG RNA 2: GGGAAUGGAUCCACAUCUACGAAUUCGUACCAUAGAGAGGUGAUCCGCUGACCGAGAUCGGAAGAGCACACGU
5. target 1 C2U,U3G (mixed) RNA 1: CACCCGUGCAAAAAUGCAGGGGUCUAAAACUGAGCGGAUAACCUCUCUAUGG RNA 2: GGGAAUGGAUCCACAUCUACGAAUUCGUACCAUAGAGAGGUUAUCCGCGUACCGAGAUCGGAAGAGCACACGU

1.81
1.17
0.48
1.62
1.32
